- ASSAY_REMARKS: Human HepG2 cell viability assay in 384 well format
- Type: toxicity, cell-based
- Parameters: dose 125 nL, time 70.5 hour; concentration not given beside the values
- CONDITION_NOTES: HepG2 cells, read-out: Inhibition
MEASUREMENT_LABEL: cytotoxicity at 70.5 h (%)

* O=C(O)C(c1ccc2c(c1)OCCO2)N1CCC(N2CCOCC2)CC1 (centres undefined) | 0.0244
* O=C(NCCNc1ncccn1)N1CCN(Cc2cccnc2)CC1 | 21.2
* Cc1csc(C(C)(C)NCCOc2ccc(CC#N)cc2)n1 | -0.219
* O=C(NCC1CC1)C12CC(CN1Cc1nccs1)C2 | -9.03
* Clc1cncc(N2CCN(Cc3ccon3)CC2)n1 | -3.48
* Cc1nn(C)c(N2CCOCC2)c1CNC(C)c1cccnc1 (centres undefined) | -8.78
* CCN1CCc2[nH]cnc2C12CCN(C(=O)CCCn1cncn1)CC2 | -1.47
* Cc1nc[nH]c1CNCc1cccnc1N(C)C1CCCCC1 | -6
* Cc1ccc(NC(=O)N2CCC(NC(=O)c3ccc(C)o3)CC2)cc1 | -11.5
* Cc1oncc1C(=O)NCc1cc(=O)n2c(n1)CN(C)CCC2 | -14.9
* Cc1sc2ncnc(N3CCC(N(C)Cc4cnn(C)c4)CC3)c2c1C | 0.374
* Cc1cccc(CN2C(=O)C[C@H]3[C@@H]2CCN3Cc2ccco2)n1 | -11.7
* CC(C)Cc1cc(C(=O)NCC(O)CN2CCCCCC2)on1 (centres undefined) | -3.2
* CCOC(=O)CN1CCC(NC(=O)OC(C)(C)C)CC1 | 14.9
* O=C(NCc1cccnc1)c1ccc2nccn2c1 | 1.82
* COc1ccc2c(c1)OCC(Cc1ccc(N)cn1)C2 (centres undefined) | 2.07
* COCCOCCCNC(=O)c1cc(Cl)cc2cccnc12 | -18.1
* CC(=O)N1C[C@@H](c2ccsc2)[C@@H]2CN(Cc3ccccc3)CC[C@@H]21 | -10.8
* CC(=O)NCCNCC1(O)CCCN(CCC2CCCCC2)C1=O (centres undefined) | -1.79
* Cc1cnc(N2CCCC(O)C2)nc1-c1ccnn1C (centres undefined) | 10.8
* COc1ccc(S(=O)(=O)NCCC(O)c2ccccc2)c(C)c1 (centres undefined) | -8.64
* CS(=O)(=O)N1CC[C@]2(O)CCN(CCCC(=O)c3ccccc3)C[C@@H]2C1 | -2.45
* Cc1ccn(CCC(=O)N2CCCC(Cc3cccnc3)C2)n1 (centres undefined) | -5.66
* O=C1COc2ccc(C(=O)NS(=O)(=O)c3ccccc3F)cc2N1 | -8.64
* CCOCC1CN(C(=O)Cc2ccccn2)Cc2cnn(CC)c21 (centres undefined) | 10.8
* CN(Cc1ccco1)C(=O)NCc1nnc2n1CCC2 | -8.06
* CC(=O)NC1CCCN(C(=O)CCc2cccnc2)C1 (centres undefined) | 19.2
* Cc1ccccc1CN1CCN(CC(=O)Nc2cccnc2)CC1 | 5.17
* Cc1nc(-c2c(-c3ccccc3)ncn2CCCN2CCOCC2)c[nH]1 | -8.17
* O=C(NCCNC(=O)c1scnc1Cl)c1ccccc1 | -6.16
* CC(C)(C)c1n[nH]cc1CNC1CCC(OCC(F)(F)F)CC1 (centres undefined) | -11.2
* CC[C@@H]1C[C@H](C(F)(F)F)n2nc(C3CCN(S(=O)(=O)CC)CC3)cc2N1 | 18.8
* Cc1cnn(CC2CCCN2C(=O)c2cccc3c2OCO3)c1 (centres undefined) | -5.23
* Cc1cc(C(=O)N2CCn3nc(C(=O)NC4CC4)cc3C2)nc(C)n1 | -2.56
* CCOCC1CN(C(=O)c2ccsc2)Cc2nn(C)cc21 (centres undefined) | -8.31
* N#Cc1c(C2CCOC2)cc(-c2ccc(N3CCCCC3)cc2)nc1N (centres undefined) | -7.42
* Cc1noc(C)c1-c1ccnc(C2CCNCC2)c1 | -2.34
* Cc1ccc(OCCC(=O)NC2CCc3nccn3C2)cc1 (centres undefined) | 0.164
* COc1ccc(N(C)C(=O)C2CN(C)CCO2)cc1Cl (centres undefined) | 8.7
* CCN1CC2(CCC1=O)CCN(CCc1nccn1C)CC2 | -6.75
* Cc1cc2cccc(C(=O)N3CC[C@](C)(O)[C@H](C)C3)c2o1 | 14.5
* Fc1ccc(F)c(CN2CCC(c3cc4ncccc4cn3)CC2)c1 | 4.59
* COc1ccc(CN2CCc3[nH]nc(C(=O)N(C)C)c3C2)cc1 | -8.01
* O=C(c1cccnc1O)N1CCOC(Cc2cccc(C(F)(F)F)c2)C1 (centres undefined) | -7
